# target or system: UniProt Q9R0K7
# Sequence (Q9R0K7 whole entry): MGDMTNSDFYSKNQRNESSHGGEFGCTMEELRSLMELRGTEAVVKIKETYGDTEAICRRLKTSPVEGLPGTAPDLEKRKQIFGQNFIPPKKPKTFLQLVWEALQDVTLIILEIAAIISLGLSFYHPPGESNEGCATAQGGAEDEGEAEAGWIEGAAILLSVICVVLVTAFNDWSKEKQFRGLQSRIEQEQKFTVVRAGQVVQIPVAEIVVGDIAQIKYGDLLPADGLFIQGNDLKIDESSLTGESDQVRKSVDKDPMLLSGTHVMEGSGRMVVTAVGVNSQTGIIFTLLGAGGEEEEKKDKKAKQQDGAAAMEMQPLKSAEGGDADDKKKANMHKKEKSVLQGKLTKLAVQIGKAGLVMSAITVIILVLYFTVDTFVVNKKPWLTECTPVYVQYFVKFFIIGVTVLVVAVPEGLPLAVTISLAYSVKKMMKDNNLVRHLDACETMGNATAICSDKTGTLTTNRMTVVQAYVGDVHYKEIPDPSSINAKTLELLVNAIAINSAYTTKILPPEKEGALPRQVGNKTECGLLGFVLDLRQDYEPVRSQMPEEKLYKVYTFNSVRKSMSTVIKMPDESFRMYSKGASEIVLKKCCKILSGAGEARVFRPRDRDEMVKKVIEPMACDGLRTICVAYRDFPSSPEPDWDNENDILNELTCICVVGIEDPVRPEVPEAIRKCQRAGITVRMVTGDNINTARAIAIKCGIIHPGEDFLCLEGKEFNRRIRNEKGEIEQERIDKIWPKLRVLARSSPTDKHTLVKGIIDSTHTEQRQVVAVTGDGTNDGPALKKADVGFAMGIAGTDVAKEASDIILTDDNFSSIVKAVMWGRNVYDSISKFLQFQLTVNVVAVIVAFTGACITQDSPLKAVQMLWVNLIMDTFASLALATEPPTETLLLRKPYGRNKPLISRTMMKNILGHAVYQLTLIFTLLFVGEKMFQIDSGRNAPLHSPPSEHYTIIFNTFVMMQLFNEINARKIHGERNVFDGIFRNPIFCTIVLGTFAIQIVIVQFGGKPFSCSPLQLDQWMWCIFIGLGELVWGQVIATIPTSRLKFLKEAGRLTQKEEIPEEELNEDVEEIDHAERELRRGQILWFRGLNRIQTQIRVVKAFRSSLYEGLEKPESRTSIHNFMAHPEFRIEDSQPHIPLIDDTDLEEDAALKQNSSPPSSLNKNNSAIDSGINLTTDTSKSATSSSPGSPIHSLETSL
# Sequence (P97300 29-397 partner): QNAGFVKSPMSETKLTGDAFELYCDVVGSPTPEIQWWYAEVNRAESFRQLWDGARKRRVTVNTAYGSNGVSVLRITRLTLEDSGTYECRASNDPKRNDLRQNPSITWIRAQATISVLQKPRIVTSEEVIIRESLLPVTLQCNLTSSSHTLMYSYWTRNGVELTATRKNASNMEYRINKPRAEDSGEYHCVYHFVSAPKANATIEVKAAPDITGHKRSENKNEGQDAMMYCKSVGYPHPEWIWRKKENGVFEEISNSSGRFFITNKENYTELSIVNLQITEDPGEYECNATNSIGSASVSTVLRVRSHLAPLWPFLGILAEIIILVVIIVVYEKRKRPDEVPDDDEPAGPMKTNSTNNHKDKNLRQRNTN
# assay method text: whole-cell patch clamp, BKCa-based Ca2+ transport assay in CHO cells
measured quantity: IC50

mol	measured quantity	result
C/C=C(/C)C(=O)O[C@H]1C(C)=C2[C@H]([C@@H]1OC(=O)CCCCCCC)[C@@](C)(OC(C)=O)C[C@H](OC(=O)CCC)[C@@]1(O)[C@H]2OC(=O)[C@@]1(C)O	IC50	2600 nM
